Origin of the recorded values: the supplement of paper PMC10567573

For each record, write down the corresponding protein stability index.
B1: CRYL1 (parent)
chain: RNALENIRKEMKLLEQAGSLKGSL

variants of: B1; test: protein stability index of a GFP-peptide fusion (GPS, HEK-293T) (PSI 1-6); higher = more stable; conditions: c terminus: a fixed tail appended;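 further: lentivirally expressed fusions sorted by FACS into six bins by GFP to DsRed ratio, PSI derived from sequencing read proportions per bin multiplied by bin number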
Answers are plain numbers.

sequence variant	measure	reported
L20D	protein stability index	4.16
L20H	protein stability index	3.99
Q16R	protein stability index	2.86
A17F	protein stability index	2.22
K21R	protein stability index	2.68
G18L	protein stability index	1.83
G22A	protein stability index	3.21
N6M	protein stability index	2.98
L20T	protein stability index	3.56
E5V	protein stability index	2.82

Then this variant:
Challenge: Which protein stability index value belongs to R1T ?
Response given: 3.87
